# Tested on: BT-474
# Assay name: cells
# Assay type: functional, cell-based
# Condition description: Homo sapiens, BT-474, 72 h
# Description: Cytotoxicity against human BT474 cells expressing HER2 after 72 hrs by MTT assay
I'd appreciate it if you marked entries True when IC50 is lower than 600 nM and False when it is not.

C#Cc1cccc(Nc2ncnc3cc4c(cc23)N(C(=O)/C=C/CN(C)C)CCO4)c1	True
C#Cc1cccc(Nc2ncnc3cc4c(cc23)N(C(=O)/C=C/CN(C)C)CCCO4)c1	False
C#Cc1cccc(Nc2ncnc3cc4c(cc23)N(C(=O)/C=C/CN2CCCCC2)CCO4)c1	False
C#Cc1cccc(Nc2ncnc3cc4c(cc23)N(C(=O)/C=C/CN2CCCC2)CCO4)c1	True
C#Cc1cccc(Nc2ncnc3cc4c(cc23)N(C(=O)/C=C/CN2CCC(C)CC2)CCCO4)c1	False
C#Cc1cccc(Nc2ncnc3cc4c(cc23)N(C(=O)/C=C/CN(CC)CC)CCO4)c1	True
C#Cc1cccc(Nc2ncnc3cc4c(cc23)N(C(=O)/C=C/CN2CCCCC2C)CCO4)c1 (centres undefined)	False
C#Cc1cccc(Nc2ncnc3cc4c(cc23)N(C(=O)/C=C/CN(CC)CC)CCCO4)c1	False

Problem: For the compound "C#Cc1cccc(Nc2ncnc3cc4c(cc23)N(C(=O)/C=C/CN2CCOCC2)CCO4)c1" , is IC50 under 600 nM?
False
